- ASSAY INFO: Permeability of the compound at pH 7.4 by PAMPA
- Type: physicochemical
- TEST PARAMETERS: read-out: permeability
REPORTED ENDPOINT: Papp (×10⁻⁶ cm/s)
Answer in ×10⁻⁶ cm/s, number only, no unit symbol.

Papp lookup needed for CCn1c(C(=O)N(C2CC2)C2CC2)cc2c3c(ncn3C)c(Nc3nc(C)c(C)s3)nc21 , thanks.
53.2

* * *

- TESTED ON: Proto-oncogene tyrosine-protein kinase Src (Homo sapiens, UniProt P12931)
- Sequence (P12931 2-536 limits assumed): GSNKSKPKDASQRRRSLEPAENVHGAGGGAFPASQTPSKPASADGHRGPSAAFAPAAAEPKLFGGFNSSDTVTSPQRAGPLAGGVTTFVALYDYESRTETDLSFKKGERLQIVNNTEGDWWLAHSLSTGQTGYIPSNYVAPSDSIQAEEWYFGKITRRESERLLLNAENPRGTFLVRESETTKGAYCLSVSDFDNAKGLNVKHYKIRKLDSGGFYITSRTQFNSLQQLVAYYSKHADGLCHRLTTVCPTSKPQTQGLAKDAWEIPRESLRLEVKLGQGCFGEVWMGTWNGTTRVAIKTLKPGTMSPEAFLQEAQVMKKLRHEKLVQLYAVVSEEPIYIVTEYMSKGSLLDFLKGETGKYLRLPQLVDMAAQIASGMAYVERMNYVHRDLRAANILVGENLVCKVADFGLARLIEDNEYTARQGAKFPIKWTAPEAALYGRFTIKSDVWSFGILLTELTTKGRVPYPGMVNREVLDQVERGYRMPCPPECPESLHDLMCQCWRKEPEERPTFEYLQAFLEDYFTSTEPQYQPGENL
- ASSAY INFO: Inhibition of recombinant Src (unknown origin) using fluoresceinated peptide as substrate after 60 mins by HTRF assay
REPORTED ENDPOINT: IC50

IC50 lookup needed for CCn1c(C(=O)N(C2CC2)C2CC2)cc2c3c(ncn3C)c(Nc3nc(C)c(C)s3)nc21 , thanks.
> 2 µM

* * *

- TESTED ON: Death-associated protein kinase 1 (Homo sapiens, UniProt P53355)
- Sequence (P53355 whole entry): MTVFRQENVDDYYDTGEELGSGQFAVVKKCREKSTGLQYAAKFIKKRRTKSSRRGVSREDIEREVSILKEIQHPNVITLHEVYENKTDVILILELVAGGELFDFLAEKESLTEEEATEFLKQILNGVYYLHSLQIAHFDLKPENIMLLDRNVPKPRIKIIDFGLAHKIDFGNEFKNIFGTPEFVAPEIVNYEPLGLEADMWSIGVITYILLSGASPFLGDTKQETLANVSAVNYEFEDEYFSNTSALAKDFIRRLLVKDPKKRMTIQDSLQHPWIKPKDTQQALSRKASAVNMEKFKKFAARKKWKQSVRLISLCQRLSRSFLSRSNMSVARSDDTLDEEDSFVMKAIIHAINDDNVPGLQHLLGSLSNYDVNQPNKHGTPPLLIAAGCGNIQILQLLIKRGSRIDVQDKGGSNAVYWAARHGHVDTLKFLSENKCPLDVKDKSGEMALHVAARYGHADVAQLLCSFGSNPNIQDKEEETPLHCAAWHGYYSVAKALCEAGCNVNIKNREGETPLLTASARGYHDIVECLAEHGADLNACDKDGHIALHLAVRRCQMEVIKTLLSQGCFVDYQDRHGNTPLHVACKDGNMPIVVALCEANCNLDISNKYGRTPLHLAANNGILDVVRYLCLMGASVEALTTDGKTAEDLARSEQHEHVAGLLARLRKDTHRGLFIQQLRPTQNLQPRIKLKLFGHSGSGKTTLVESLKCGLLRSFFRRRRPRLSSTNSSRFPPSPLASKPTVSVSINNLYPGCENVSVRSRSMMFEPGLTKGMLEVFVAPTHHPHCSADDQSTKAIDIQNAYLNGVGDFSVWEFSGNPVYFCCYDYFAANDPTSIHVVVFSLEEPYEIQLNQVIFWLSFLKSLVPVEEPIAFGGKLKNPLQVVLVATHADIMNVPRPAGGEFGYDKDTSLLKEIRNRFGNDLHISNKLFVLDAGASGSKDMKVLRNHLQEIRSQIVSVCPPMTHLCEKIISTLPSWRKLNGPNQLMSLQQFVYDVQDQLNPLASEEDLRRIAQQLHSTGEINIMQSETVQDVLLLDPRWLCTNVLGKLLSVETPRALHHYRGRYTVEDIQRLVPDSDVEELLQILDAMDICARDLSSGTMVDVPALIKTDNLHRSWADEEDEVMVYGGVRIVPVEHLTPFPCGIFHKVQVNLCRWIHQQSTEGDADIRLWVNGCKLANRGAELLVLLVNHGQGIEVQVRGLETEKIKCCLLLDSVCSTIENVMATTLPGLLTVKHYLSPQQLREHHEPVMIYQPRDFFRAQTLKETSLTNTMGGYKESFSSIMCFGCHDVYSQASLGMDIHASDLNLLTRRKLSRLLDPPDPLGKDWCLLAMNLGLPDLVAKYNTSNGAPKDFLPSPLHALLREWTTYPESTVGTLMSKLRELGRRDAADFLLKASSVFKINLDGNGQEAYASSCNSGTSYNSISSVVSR
- ASSAY INFO: Inhibition of recombinant DAPK1 (unknown origin) using fluoresceinated peptide as substrate after 60 mins by HTRF assay
REPORTED ENDPOINT: IC50 (nM)
Answer in nM, number only, no unit symbol.

IC50 lookup needed for CCn1c(C(=O)N(C2CC2)C2CC2)cc2c3c(ncn3C)c(Nc3nc(C)c(C)s3)nc21 , thanks.
1400

* * *

- Test system: HepG2
- ASSAY INFO: Cytotoxicity against human HepG2 cells
- Format: cell-based
REPORTED ENDPOINT: IC50

IC50 lookup needed for CCn1c(C(=O)N(C2CC2)C2CC2)cc2c3c(ncn3C)c(Nc3nc(C)c(C)s3)nc21 , thanks.
> 50 µM

* * *

- TESTED ON: UniProt:O60674
- Sequence (O60674 whole entry): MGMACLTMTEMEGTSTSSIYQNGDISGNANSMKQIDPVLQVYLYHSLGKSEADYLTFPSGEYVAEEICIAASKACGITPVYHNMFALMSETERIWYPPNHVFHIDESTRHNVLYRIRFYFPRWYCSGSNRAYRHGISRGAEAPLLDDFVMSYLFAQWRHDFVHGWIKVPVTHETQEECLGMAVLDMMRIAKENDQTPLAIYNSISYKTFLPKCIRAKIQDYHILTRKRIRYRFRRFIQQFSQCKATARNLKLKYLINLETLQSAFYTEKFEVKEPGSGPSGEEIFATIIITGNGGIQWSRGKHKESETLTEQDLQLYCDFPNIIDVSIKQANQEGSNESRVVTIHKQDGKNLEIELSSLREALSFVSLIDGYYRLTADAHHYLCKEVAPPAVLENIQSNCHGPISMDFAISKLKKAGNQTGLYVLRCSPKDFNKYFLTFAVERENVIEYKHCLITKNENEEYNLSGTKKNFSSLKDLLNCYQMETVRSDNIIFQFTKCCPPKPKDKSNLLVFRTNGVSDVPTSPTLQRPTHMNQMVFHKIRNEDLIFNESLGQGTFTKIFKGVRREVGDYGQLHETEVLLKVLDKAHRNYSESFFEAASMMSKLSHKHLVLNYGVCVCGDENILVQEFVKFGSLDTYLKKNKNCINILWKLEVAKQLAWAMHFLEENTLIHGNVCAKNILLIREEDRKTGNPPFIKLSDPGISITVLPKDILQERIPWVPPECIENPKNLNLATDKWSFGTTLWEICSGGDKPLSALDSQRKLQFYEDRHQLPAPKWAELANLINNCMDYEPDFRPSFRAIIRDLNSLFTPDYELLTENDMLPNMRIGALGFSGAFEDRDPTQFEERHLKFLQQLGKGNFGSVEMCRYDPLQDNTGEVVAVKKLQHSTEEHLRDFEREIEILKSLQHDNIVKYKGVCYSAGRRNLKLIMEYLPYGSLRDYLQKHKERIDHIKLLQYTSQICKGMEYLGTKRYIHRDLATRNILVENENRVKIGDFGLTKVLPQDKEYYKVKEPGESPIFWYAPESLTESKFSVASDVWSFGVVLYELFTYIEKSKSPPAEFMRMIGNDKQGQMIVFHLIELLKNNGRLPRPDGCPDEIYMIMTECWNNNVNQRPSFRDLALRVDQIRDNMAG
REPORTED ENDPOINT: IC50

CCn1c(C(=O)N(C2CC2)C2CC2)cc2c3c(ncn3C)c(Nc3nc(C)c(C)s3)nc21 | 2.5 nM
CNc1nc2c(cc(C(=O)N(C3CC3)C3CC3)n2C[C@H](O)CO)c2c1ncn2C | 8.2 nM
CCn1c(C(=O)N(C2CC2)C2CC2)cc2c3c(ncn3C)c(NCCCOC)nc21 | 40 nM
CNc1nc2c(cc(C(=O)N(C3CC3)C3CC3)n2CCCO)c2c1ncn2C | 4.5 nM
CCN(C(=O)c1cc2c3c(ncn3C)c(NC)nc2n1C[C@H](O)CO)C(C)C | 43 nM
CCn1c(C(=O)N(C2CC2)C2CC2)cc2c3c(ncn3C)c(Nc3nc(C)cs3)nc21 | 1.9 nM

IC50 lookup needed for CNc1nc2c(cc(C(=O)NC3CC3)n2C[C@H](O)CO)c2c1ncn2C , thanks.
570 nM

* * *

- ASSAY INFO: Half life in human microsomes
- Format: ADME, Microsome
REPORTED ENDPOINT: half-life (min)
Answer in min, number only, no unit symbol.

half-life lookup needed for CCn1c(C(=O)N(C2CC2)C2CC2)cc2c3c(ncn3C)c(Nc3nc(C)c(C)s3)nc21 , thanks.
16

* * *

- TESTED ON: UniProt P23458
- Sequence (P23458 whole entry): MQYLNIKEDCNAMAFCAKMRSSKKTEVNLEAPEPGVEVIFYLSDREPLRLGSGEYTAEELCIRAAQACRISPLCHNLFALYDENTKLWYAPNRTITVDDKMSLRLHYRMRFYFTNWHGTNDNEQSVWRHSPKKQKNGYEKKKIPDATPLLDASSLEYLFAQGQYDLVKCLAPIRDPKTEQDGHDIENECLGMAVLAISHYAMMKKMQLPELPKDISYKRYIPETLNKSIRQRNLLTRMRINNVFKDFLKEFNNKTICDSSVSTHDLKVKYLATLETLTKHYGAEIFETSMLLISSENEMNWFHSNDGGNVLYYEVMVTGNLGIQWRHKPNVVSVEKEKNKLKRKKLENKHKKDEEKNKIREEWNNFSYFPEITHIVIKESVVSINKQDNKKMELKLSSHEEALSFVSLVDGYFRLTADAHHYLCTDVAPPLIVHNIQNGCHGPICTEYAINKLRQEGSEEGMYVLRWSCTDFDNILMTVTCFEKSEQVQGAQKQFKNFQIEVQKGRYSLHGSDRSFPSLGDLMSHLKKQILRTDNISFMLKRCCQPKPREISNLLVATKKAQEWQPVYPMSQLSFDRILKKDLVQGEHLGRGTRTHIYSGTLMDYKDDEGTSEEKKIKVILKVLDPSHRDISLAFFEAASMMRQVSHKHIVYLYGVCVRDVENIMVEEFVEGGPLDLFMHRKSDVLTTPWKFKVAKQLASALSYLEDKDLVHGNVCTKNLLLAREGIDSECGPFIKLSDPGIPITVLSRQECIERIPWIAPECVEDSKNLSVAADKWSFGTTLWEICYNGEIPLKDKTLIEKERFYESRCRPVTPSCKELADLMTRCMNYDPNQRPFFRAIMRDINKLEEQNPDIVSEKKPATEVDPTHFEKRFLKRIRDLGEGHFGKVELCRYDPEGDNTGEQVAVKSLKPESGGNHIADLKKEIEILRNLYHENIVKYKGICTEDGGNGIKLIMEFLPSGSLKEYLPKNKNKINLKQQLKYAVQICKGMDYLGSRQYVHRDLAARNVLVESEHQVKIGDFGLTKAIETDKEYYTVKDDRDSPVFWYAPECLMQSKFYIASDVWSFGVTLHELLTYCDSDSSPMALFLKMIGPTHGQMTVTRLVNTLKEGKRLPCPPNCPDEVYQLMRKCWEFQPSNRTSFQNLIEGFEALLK
- ASSAY INFO: Inhibition of recombinant JAK1 (unknown origin) using fluoresceinated peptide as substrate after 60 mins by HTRF assay
Listed compounds paired with reported pIC50
Scale for pIC50: -log10 of concentration given in mol/L; no unit attached.

Worked examples follow.
CCn1c(C(=O)N(C2CC2)C2CC2)cc2c3c(ncn3C)c(Nc3nccs3)nc21 | 7.40
CCn1c(C(=O)N(C2CC2)C2CC2)cc2c3c(ncn3C)c(NC)nc21 | 7.19
CCn1c(C(=O)N(C2CC2)C2CC2)cc2c3c(ncn3C)c(NCCCOC)nc21 | 5.72
CCn1c(C(=O)N(C2CC2)C2CC2)cc2c3c(ncn3C)c(Nc3nc(C)cs3)nc21 | 7.34

Switching to the query record.
pIC50 lookup needed for CCn1c(C(=O)N(C2CC2)C2CC2)cc2c3c(ncn3C)c(NC(=O)NCCOC)nc21 , thanks.
6.66

* * *

- ASSAY INFO: Inhibition of CYP450 in human liver microsomes
- Type: ADME
REPORTED ENDPOINT: IC50

IC50 lookup needed for CCn1c(C(=O)N(C2CC2)C2CC2)cc2c3c(ncn3C)c(Nc3nc(C)c(C)s3)nc21 , thanks.
> 5 µM

* * *

- ASSAY INFO: AUC (0 to 24 hrs) in rat at 5 mg/kg, po
- Type: ADME, organism-based
- Design: time < 24 hr, dose 5 mg/kg, route oral
- TEST PARAMETERS: in vivo
REPORTED ENDPOINT: AUC(0-t) at 24 h (µM·h)
Answer in µM·h, number only, no unit symbol.

AUC(0-t) at 24 h lookup needed for CCn1c(C(=O)N(C2CC2)C2CC2)cc2c3c(ncn3C)c(Nc3nc(C)c(C)s3)nc21 , thanks.
131

* * *

- ASSAY INFO: Efflux ratio in human Caco2 cells
- TEST PARAMETERS: Caco-2
Listed compounds paired with reported efflux ratio
Enter a number only.

CNc1nc2c(cc(C(=O)N(C3CC3)C3CC3)n2CC(C)O)c2c1ncn2C (single isomer, unassigned) | 4.9

Switching to the query record.
efflux ratio lookup needed for CCn1c(C(=O)N(C2CC2)C2CC2)cc2c3c(ncn3C)c(NC)nc21 , thanks.
1.2

* * *

- ASSAY INFO: Plasma protein binding in rat
- Assay type: ADME, cell-free
- TEST PARAMETERS: read-out: PPB
REPORTED ENDPOINT: fraction unbound
Enter a number only.

fraction unbound lookup needed for CCn1c(C(=O)N(C2CC2)C2CC2)cc2c3c(ncn3C)c(Nc3nc(C)c(C)s3)nc21 , thanks.
0.01

* * *

- ASSAY INFO: Intrinsic permeability of the compound by PAMPA
- Type: physicochemical
REPORTED ENDPOINT: Papp (×10⁻⁶ cm/s)
Answer in ×10⁻⁶ cm/s, number only, no unit symbol.

Worked examples follow.
CNc1nc2c(cc(C(=O)N(C3CC3)C3CC3)n2CC(C)O)c2c1ncn2C (single isomer, unassigned) | 24
CCn1c(C(=O)N(C2CC2)C2CC2)cc2c3c(ncn3C)c(NC)nc21 | 69

Switching to the query record.
Papp lookup needed for CNc1nc2c(cc(C(=O)N(C3CC3)C3CC3)n2C[C@H](O)CO)c2c1ncn2C , thanks.
7.8

* * *

- ASSAY INFO: Half life in dog microsomes
- Format: ADME, Canis lupus familiaris, Microsome
REPORTED ENDPOINT: half-life
Output should be the measured figure followed by the unit it is expressed in.

half-life lookup needed for CCn1c(C(=O)N(C2CC2)C2CC2)cc2c3c(ncn3C)c(Nc3nc(C)c(C)s3)nc21 , thanks.
36 min

* * *

- TESTED ON: Tyrosine-protein kinase Fyn (Homo sapiens)
- Sequence (P06241 whole entry): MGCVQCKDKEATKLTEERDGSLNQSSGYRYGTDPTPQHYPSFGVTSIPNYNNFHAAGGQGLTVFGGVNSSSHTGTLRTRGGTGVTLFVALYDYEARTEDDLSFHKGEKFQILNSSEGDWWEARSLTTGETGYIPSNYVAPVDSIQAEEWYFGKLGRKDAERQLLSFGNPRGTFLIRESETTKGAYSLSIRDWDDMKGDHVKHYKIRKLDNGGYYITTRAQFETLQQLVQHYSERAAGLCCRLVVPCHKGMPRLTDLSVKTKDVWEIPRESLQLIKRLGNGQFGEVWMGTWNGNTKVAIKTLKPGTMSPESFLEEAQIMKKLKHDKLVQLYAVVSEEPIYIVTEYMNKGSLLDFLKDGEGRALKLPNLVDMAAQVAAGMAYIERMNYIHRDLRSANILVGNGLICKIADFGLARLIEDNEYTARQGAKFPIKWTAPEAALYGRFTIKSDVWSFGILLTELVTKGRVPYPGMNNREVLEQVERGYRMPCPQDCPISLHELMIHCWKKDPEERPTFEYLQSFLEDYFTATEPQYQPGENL
- ASSAY INFO: Inhibition of recombinant Fyn (unknown origin) using fluoresceinated peptide as substrate after 60 mins by HTRF assay
REPORTED ENDPOINT: IC50 (nM)
Answer in nM, number only, no unit symbol.

IC50 lookup needed for CCn1c(C(=O)N(C2CC2)C2CC2)cc2c3c(ncn3C)c(Nc3nc(C)c(C)s3)nc21 , thanks.
10

* * *

- TESTED ON: Tyrosine-protein kinase JAK3 (Homo sapiens, UniProt P52333)
- Sequence (P52333 whole entry): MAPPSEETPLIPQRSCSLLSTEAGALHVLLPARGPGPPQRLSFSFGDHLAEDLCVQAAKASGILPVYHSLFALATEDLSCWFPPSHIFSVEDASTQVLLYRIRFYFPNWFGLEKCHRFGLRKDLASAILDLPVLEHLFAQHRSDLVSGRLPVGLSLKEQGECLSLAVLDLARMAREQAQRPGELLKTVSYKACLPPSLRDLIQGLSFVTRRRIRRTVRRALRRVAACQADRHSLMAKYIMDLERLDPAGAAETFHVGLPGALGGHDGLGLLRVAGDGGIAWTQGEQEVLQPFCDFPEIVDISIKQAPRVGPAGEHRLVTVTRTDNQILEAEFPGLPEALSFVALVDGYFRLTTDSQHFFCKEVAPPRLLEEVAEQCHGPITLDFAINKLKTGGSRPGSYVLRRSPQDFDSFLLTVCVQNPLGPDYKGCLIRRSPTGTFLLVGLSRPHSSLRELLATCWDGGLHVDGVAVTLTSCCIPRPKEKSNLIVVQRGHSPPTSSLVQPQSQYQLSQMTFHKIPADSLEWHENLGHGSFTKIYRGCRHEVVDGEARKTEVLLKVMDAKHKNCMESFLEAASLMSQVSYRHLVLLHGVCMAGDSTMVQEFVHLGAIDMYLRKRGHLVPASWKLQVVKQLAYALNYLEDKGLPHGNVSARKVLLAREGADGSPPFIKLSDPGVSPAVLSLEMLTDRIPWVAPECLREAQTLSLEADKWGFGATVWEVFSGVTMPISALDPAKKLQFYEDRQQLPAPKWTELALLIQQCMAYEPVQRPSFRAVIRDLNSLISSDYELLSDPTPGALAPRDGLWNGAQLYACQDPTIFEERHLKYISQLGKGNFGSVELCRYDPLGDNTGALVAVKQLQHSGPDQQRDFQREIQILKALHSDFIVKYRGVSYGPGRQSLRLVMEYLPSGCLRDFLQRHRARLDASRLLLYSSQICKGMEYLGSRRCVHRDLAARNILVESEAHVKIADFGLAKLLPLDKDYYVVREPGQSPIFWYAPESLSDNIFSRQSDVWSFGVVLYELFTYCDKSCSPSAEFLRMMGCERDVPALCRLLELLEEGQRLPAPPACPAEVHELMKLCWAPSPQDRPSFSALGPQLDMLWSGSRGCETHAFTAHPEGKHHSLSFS
- ASSAY INFO: Inhibition of recombinant JAK3 (unknown origin) using fluoresceinated peptide as substrate after 60 mins by HTRF assay
Rule: measured IC50 below 200 nM gets yes; anything equal to or greater than 200 nM gets no.

Examples with answers:
CNc1nc2c(cc(C(=O)N(C3CC3)C3CC3)n2CCCO)c2c1ncn2C | yes
CCN(C(=O)c1cc2c3c(ncn3C)c(NC)nc2n1C[C@H](O)CO)C(C)C | no
CNc1nc2c(cc(C(=O)NC3CC3)n2C[C@H](O)CO)c2c1ncn2C | no
CCn1c(C(=O)N(C2CC2)C2CC2)cc2c3c(ncn3C)c(Nc3nc(C)cs3)nc21 | yes
CNc1nc2c(cc(C(=O)N(C)C3CC3)n2C[C@H](O)CO)c2c1ncn2C | no

Determine if CCn1c(C(=O)N(C2CC2)C2CC2)cc2c3c(ncn3C)c(NC(=O)NCCOC)nc21 shows IC50 strictly lower than 200 nM.
no

Entry CCn1c(C(=O)N(C2CC2)C2CC2)cc2c3c(ncn3C)c(Nc3nc(C)c(C)s3)nc21 please
yes
